test system: MCF7; experiment: Cytotoxicity against human MCF7 cells assessed as cellular growth at 10 uM by SRB assay; assay type: functional
measured-quantity: Activity (%)
Answers are plain numbers, in %.

These recorded examples may help you get a feel for the data.
{"columns": ["structure-string", "unit-of-measure", "Activity"],
 "data": [
  ["COc1cccc(C(=O)Nc2nc3ccc(Cl)cc3s2)c1", "%", 85.29],
  ["COc1cc(/C=c2/sc3nc4ccccc4n3c2=O)cc(I)c1O", "%", 93.11]
]}

Moving on to another compound below.
For record `CC1(C)CC(=O)c2cc3c(N)c(C(=O)Nc4ccccc4Cl)sc3nc2C1` the listed Activity is 111.34

* * *

tested on: K562; assay: Cytotoxicity against human K562 cells by SRB assay; format: functional
measured-quantity: GI50 (µM)
Answers are plain numbers, in µM.

These recorded examples may help you get a feel for the data.
{"columns": ["structure-string", "measured-quantity", "recorded-result"],
 "data": [
  ["Nc1c(C(=O)Nc2ccccc2F)sc2nc3c(cc12)C(=O)CCC3", "GI50", 1.8],
  ["Cc1ccccc1NC(=O)c1sc2nc3c(cc2c1N)C(=O)CCC3", "GI50", 4.3],
  ["Nc1c(C(=O)Nc2ccccc2)sc2nc3c(cc12)C(=O)CCC3", "GI50", 0.52]
]}

Moving on to another compound below.
For record `Nc1c(C(=O)Nc2cccc(Cl)c2)sc2nc3c(cc12)C(=O)CCC3` the listed GI50 is 0.2

* * *

test system: MCF7; test: Cytotoxicity against human MCF7 cells assessed as cellular growth at 10 uM by SRB assay; assay type: functional
I'd be grateful if you could share measured Activity for these entries.
One number for each entry, in %.

{"columns": ["structure-string", "Activity (%)"],
 "data": [
  ["O=C1N=C(c2ccccc2)S/C1=C\\c1ccc2c(c1)OCO2", 101.6],
  ["COc1ccc2[nH]c(C(=O)NCc3ccccc3)cc2c1", 83.2],
  ["Cc1c(OCC(=O)c2ccccc2)ccc2c1oc(=O)c1ccccc12", 102.82]
]}

Working through the 3 compounds below one at a time, give Activity for each.
1. O=C(NCc1ccc(Cl)cc1)c1[nH]c2ccccc2c1Cl
2. Nc1c(C(=O)Nc2cccc(Cl)c2)sc2nc3c(cc12)C(=O)CCC3
3. c1ccc(-c2nc(-c3cccs3)no2)cc1

Response:
1: 128.42; 2: 16.68; 3: 52.58

Working through the 6 compounds below one at a time, give Activity for each.
1. Cc1ccc(S(=O)(=O)NC2=NC(=O)/C(=C\c3ccccc3)S2)cc1
2. O=S(=O)(Oc1ccc(-c2cnc3ccccc3n2)cc1)c1ccc2ccccc2c1
3. COc1ccc(Cl)cc1C(=O)Nc1nc2ccc(Cl)cc2s1
4. O=C(Nc1nc2ccc(Cl)cc2s1)c1ccc(Cl)cc1Cl
5. Cc1ccc(NC(=O)c2sc3nc4c(cc3c2N)C(=O)CCC4)cc1Cl
6. Oc1ccccc1-c1nc(-c2cccs2)no1

Response:
[97.41, 103.49, 41.75, 98.4, 102.05, 56.48]

Working through the 2 compounds below one at a time, give Activity for each.
1. Cc1ccc(NC(=O)c2sc3nc4c(cc3c2N)C(=O)CCC4)c(Br)c1
2. CC1(C)CC(=O)c2cc3c(N)c(C(=O)Nc4ccc(F)cc4)sc3nc2C1

Response:
96.02
105.49
